test: Plasma stability assay, monkey plasma; type: in vitro ADME, cynomolgus monkey; settings: 2 μM, 37° C., 15 min (head)
Task for the reader: assign each of the following compounds its reported % remaining at time point.
Give the value in % but do not write % after it.

Inquiry: // lookup % remaining at time point for `C=C1CC[C@@]2(O)C3Cc4ccc(OCOC(=O)OCCCCCCCCCCCC)c5c4[C@@]2(CCN3CC2CC2)[C@H]1O5`
Reply text: 90.7

Inquiry: Repeat for the following compound: CCCCCCCCCCCCCCCC(=O)OC1CCCn2c1nc(C)c(CCN1CCC(c3noc4cc(F)ccc34)CC1)c2=O (centres unmarked) [Paliperidone palmitate, reference compound]
Reply text: 92

Inquiry: Repeat for the following compound: `C=C1CC[C@@]2(O)C3Cc4ccc(OC(=O)CCCCCCC/C=C/CCCCCCCC)c5c4[C@@]2(CCN3CC2CC2)[C@H]1O5`
Reply text: 74.5

Inquiry: Repeat for the following compound: CCCCCCCCCCCC(=O)OCN1C(=O)CCc2ccc(OCCCCN3CCN(c4cccc(Cl)c4Cl)CC3)cc21 [Aripiprazole Lauroxil, reference compound]
Reply text: 95.2

Inquiry: Repeat for the following compound: `C=C1CC[C@@]2(O)C3Cc4ccc(OC(=O)OCCCCCCCCCCCC)c5c4[C@@]2(CCN3CC2CC2)[C@H]1O5`
Reply text: 88.7

====

conditions: Cottonseed oil; heating temp. 60 °C, obs. temp. 25 °C
Task for the reader: assign each of the following molecules its reported Approximate Solubility (mg/mL) in Excipient: Cottonseed oil.

Inquiry: // lookup Approximate Solubility (mg/mL) in Excipient: Cottonseed oil for `CCCCCCCCCCCCCCCCCCCC(=O)Oc1ccc2c3c1O[C@H]1C(=O)CC[C@@]4(O)C(C2)N(CC2CC2)CC[C@]314`
Reply text: <51 mg/mL

Inquiry: Repeat for the following molecule: `CCCCCCCC/C=C\CCCCCCCC(=O)Oc1ccc2c3c1O[C@H]1C(=O)CC[C@@]4(O)C(C2)N(CC2CC2)CC[C@]314`
Reply text: <50 mg/mL

Inquiry: Repeat for the following molecule: `CCCCCCCCCCCCCCCC(=O)OCOc1ccc2c3c1O[C@H]1C(=O)CC[C@@]4(O)C(C2)N(CC2CC2)CC[C@]314`
Reply text: <50 mg/mL

Inquiry: Repeat for the following molecule: `CCCCCCCCCCCCCCCCCC(=O)Oc1ccc2c3c1O[C@H]1C(=O)CC[C@@]4(O)C(C2)N(CC2CC2)CC[C@]314`
Reply text: <51 mg/mL

Inquiry: Repeat for the following molecule: `C=C1CC[C@@]2(O)C3Cc4ccc(OC(=O)CCCCCCCCCCCCCCCCC)c5c4[C@@]2(CCN3CC2CC2)[C@H]1O5`
Reply text: <51 mg/mL

====

Task for the reader: assign each of the following compounds its reported % remaining at time point.
Experiment: Plasma stability assay, rat plasma
Format: in vitro ADME
Conditions: 10 μM, 37° C., 15 min
Protocol: Plasma stability determination of the test compounds in rat, dog, cynomolgus monkey and human plasma is performed using HPLC-MS. […] Five time points are analyzed (0, 15, 120, 480 and 1440 min). For dog, monkey and human, test compounds (2 μM, final solvent concentration 1%) were also incubated at 37° C. and analyzed at five time points (0, 10, 30, 60 and 120 min). […] The samples are analyzed by HPLC-MS. The percentage of parent compound remaining after incubation in plasma is determined.
Give the value in % but do not write % after it.

Inquiry: // lookup % remaining at time point for C=C1CC[C@@]2(O)C3Cc4ccc(OC(=O)CCCCCCCCCCCCCCC)c5c4[C@@]2(CCN3CC2CC2)[C@H]1O5 [Compound 56]
Reply text: 73.1

Inquiry: Repeat for the following compound: C=C1CC[C@@]2(O)C3Cc4ccc(OC(=O)OCCCCCCCCCC)c5c4[C@@]2(CCN3CC2CC2)[C@H]1O5 [Compound 18]
Reply text: 0.6

Inquiry: Repeat for the following compound: CCCCCCCCCCCCCCCCCCCC(=O)Oc1ccc2c3c1O[C@H]1C(=O)CC[C@@]4(O)C(C2)N(CC2CC2)CC[C@]314 [Compound 50]
Reply text: 114.5

Inquiry: Repeat for the following compound: CCCCCCCCCCCCCC(=O)Oc1ccc2c3c1O[C@H]1C(=O)CC[C@@]4(O)C(C2)N(CC2CC2)CC[C@]314 [Compound 57]
Reply text: 10.5

Inquiry: Repeat for the following compound: CCCCCCCCCCCC(=O)OCN1C(=O)CCc2ccc(OCCCCN3CCN(c4cccc(Cl)c4Cl)CC3)cc21 [Aripiprazole Lauroxil, reference compound]
Reply text: 84

Inquiry: Repeat for the following compound: CCCCCCCCOC(=O)Oc1ccc2c3c1O[C@H]1C(=O)CC[C@@]4(O)C(C2)N(CC2CC2)CC[C@]314 [Compound 23]
Reply text: 0

Inquiry: Repeat for the following compound: C=C1CC[C@@]2(O)C3Cc4ccc(OC(=O)OCCCCCCCCCCCCCCCC)c5c4[C@@]2(CCN3CC2CC2)[C@H]1O5 [Compound 19]
Reply text: 70.1

Inquiry: Repeat for the following compound: CCCCCCCCCCCCCCC(=O)Oc1ccc2c3c1O[C@H]1C(=O)CC[C@@]4(O)C(C2)N(CC2CC2)CC[C@]314 [Compound 58]
Reply text: 37

Inquiry: Repeat for the following compound: CCCCCCCCCCCCCCCC(=O)Oc1ccc2c3c1O[C@H]1C(=O)CC[C@@]4(O)C(C2)N(CC2CC2)CC[C@]314 [Compound 55]
Reply text: 77.3
